- target.entity: T1, amylin receptor (hAMY3R) (human, UniProt P30988 25-474; O60896 24-148)
- T1 sequence (looked up) 1: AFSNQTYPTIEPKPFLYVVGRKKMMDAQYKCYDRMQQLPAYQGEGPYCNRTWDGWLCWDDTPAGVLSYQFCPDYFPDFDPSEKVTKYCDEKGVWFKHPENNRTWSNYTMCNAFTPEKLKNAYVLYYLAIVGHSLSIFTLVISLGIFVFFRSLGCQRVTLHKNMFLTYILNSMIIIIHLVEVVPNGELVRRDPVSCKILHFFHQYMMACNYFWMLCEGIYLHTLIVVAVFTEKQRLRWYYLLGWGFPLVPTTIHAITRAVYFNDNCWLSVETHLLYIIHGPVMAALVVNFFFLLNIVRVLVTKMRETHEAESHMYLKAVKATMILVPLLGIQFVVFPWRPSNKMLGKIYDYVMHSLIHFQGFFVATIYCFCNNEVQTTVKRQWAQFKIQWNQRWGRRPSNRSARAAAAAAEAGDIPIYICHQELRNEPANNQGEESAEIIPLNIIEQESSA
- T1 sequence (looked up) 2: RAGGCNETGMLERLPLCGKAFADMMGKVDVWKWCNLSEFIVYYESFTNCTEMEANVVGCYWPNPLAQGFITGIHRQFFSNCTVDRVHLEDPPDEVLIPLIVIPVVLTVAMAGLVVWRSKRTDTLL
- assay.overview: cell-based or functional assay
Numbered stars: 1 amine (or outer) side, 2 acyl side, 3 side chain; on linkers, the order of the positions; unused ones are H or OH. Square brackets hold non-standard residues; d marks the D form. Primed or numbered codes have the meaning given here. * marks the point of attachment. C20 diacid = O=C(O)CCCCCCCCCCCCCCCCCCC(=O)*; C18 diacid = O=C(O)CCCCCCCCCCCCCCCCC(=O)*; γGlu = O=C(O)[C@H](CCC(=O)[*:2])N[*:1]; Inp′ = not defined here; AEEA = NCCOCCOCC(=O)O
// assign TRUE if Fold change in activity against hAMY3R (benchmark D1) falls strictly below 2 fold, else FALSE (ties count as FALSE)

Completed entries (count: 5):
> print(dat)
                                     binder  label
1  {C18 diacid}-E[AEEA][AEEA]ASQLSTAVLGRLSDELHRLQDYPRTDVGSGSP-NH2 [M24]  FALSE
2  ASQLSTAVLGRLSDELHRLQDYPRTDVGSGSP (not fully specified; N terminus: C20 diacid + yGlu+2 AEEAs) [M18]  FALSE
3  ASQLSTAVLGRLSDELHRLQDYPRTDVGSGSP (not fully specified; N terminus: C20 diacid + βAsp) [M12]  FALSE
4  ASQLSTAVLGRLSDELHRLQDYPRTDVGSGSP (not fully specified; N terminus: C20 diacid + Inp) [M16]   TRUE
5  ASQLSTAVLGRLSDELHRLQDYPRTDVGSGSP (not fully specified; N terminus: C20 diacid + Trx+2 AEEAs) [M27]  FALSE

Threshold test, Fold change in activity against hAMY3R (benchmark D1) < 2 fold: {C20 diacid-γGlu}-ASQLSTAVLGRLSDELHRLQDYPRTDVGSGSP-NH2 (ends and bridges not checked) [M6]
FALSE

Threshold test, Fold change in activity against hAMY3R (benchmark D1) < 2 fold: {C18 diacid}-EASQLSTAVLGRLSDELHRLQDYPRTDVGSGSP-NH2 [M11]
FALSE

Threshold test, Fold change in activity against hAMY3R (benchmark D1) < 2 fold: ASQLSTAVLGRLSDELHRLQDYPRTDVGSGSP (not fully specified; N terminus: C20 diacid + Trx) [M14]
TRUE

Threshold test, Fold change in activity against hAMY3R (benchmark D1) < 2 fold: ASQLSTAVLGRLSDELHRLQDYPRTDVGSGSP (not fully specified; N terminus: C20 diacid + βAsp+2 AEEAs) [M25]
FALSE

Threshold test, Fold change in activity against hAMY3R (benchmark D1) < 2 fold: {C18 diacid-Inp′}-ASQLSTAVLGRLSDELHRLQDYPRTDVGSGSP-NH2 [M17]
TRUE

Threshold test, Fold change in activity against hAMY3R (benchmark D1) < 2 fold: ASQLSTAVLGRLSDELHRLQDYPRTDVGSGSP (not fully specified; N terminus: C20 diacid + Inp+2 AEEAs) [M29]
FALSE

Threshold test, Fold change in activity against hAMY3R (benchmark D1) < 2 fold: {C18 diacid-Inp′-AEEA-AEEA}-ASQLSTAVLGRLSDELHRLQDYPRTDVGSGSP-NH2 [M30]
FALSE

Threshold test, Fold change in activity against hAMY3R (benchmark D1) < 2 fold: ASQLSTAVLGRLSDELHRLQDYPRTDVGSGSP (N terminus: C18 diacid + Trx+2 AEEAs) [M28]
FALSE

Threshold test, Fold change in activity against hAMY3R (benchmark D1) < 2 fold: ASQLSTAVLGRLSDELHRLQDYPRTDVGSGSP (N terminus: C18 diacid + Trx) [M15]
TRUE
